Reference for the values: ChEMBL document CHEMBL1156829

- Protocol Notes: NOVARTIS: Cytotoxicity against human hepatocellular carcinoma cell line (Huh7)
- Format: toxicity, cell-based, Huh-7
- Protocol Conditions: Huh7 cells (hepatocellular carcinoma cell line)
Recorded Endpoint: CC50

Compound | CC50
COc1ccc(C2C(C(=O)Nc3cccc(Cl)c3)c3ccccc3C(=O)N2C2CCCCC2)cc1 (stereo not given) | > 100 µM
COc1cccc(CCNC(=O)c2ccc(OC3CCN(CC(c4ccccc4)c4ccccc4)CC3)c(OC)c2)c1 | > 10 µM
CCc1ccccc1NC(C)=O | > 100 µM
Cc1nc2ccc(Br)cc2c(O)c1CC(C)C | > 100 µM

Record CC50 per entry; entries follow.
1. Cc1ccc2cc3c(N)c4c(C)ccc(C)c4nc3nc2c1
2. COc1ccc(NC(=O)COc2ccccc2C(C)C)c(OC)c1
3. Cc1cc(Nc2cccc(C(F)(F)F)c2)nc2ccc(NC(=O)c3cncc(Br)c3)cc12
4. CCN1C(=Cc2ccc3c4ccoc4ccc3[n+]2CC)C=Cc2c1ccc1occc21
5. O=C(Oc1ccc(N2C(=O)c3ccc([N+](=O)[O-])cc3C2=O)cc1)c1ccco1
6. COc1ccc(-n2cc(-c3ccccc3)[n+]3c2SCC3)cc1
7. CCCCOC(=O)c1ccc(NC2=C(c3ccc(OC)cc3)C(=O)c3ccccc32)cc1

Reply text:
1: > 100 µM; 2: > 100 µM; 3: > 84.4 µM; 4: > 10 µM; 5: > 100 µM; 6: > 10 µM; 7: > 100 µM

State the recorded CC50 for every item in the following list.
1. COc1ccc(C2CC(=O)C3=C(C2)NC(C)=C(C(=O)OC2CCCC2)C3c2ccccc2F)cc1OC (stereo not given)
2. COc1cccc(-c2nc(CS(=O)(=O)CC(=O)N3CC(C)CC(C)C3)c(C)o2)c1 (stereo not given)
3. CC=C[C@H]1O[C@@](O)([C@H](C)C(O)C(C)[C@@H]2OC(=O)C(OC)=CC(C)=C[C@H](C)[C@H](O)[C@H](CC)[C@H](O)C(C)CC(C)=CC=C[C@H]2OC)C[C@@H](O[C@@H]2C[C@H](O)[C@@H](OC(N)=O)[C@H](C)O2)[C@@H]1C (stereo not given in full)
4. CCc1ccc(C(C)=NNc2nc(O)cc(-c3ccccc3)n2)cc1
5. COc1cc(NC(C)CCCN(Cc2ccccc2OC)S(=O)(=O)c2ccc(Br)cc2)c2ncccc2c1 (stereo not given)

Reply text:
1. 14.9 µM
2. > 10 µM
3. > 10 µM
4. > 10 µM
5. 4.58 µM

I would be grateful if you could provide CC50 for each of the following entries.
1. O=C1N(Cc2cc3ccccc3s2)CC2CN(Cc3ccc(F)c(F)c3)CCN12 (stereo not given)
2. CCCS(=O)(=O)N1CCC(CO)(Cc2ccccc2C(F)(F)F)CC1
3. Cn1c(=O)c2c(ncn2CC(O)CN2CCCC2)n(C)c1=O (stereo not given)

Reply text:
["> 10 µM", "> 10 µM", "> 10 µM"]

---

So I've got a bunch of molecules here, and I need their pEC50 values.
- Test system: Plasmodium falciparum
- Protocol Notes: NOVARTIS: Inhibition of Plasmodium falciparum W2 (drug-resistant) proliferation in erythrocyte-based infection assay
- Assay type: functional, organism-based
- Protocol Conditions: Plasmodium falciparum, W2; read-out: EC50
Give bare numbers, as −log10 of the molar value.

Molecule | Tested System | pEC50
CC(=O)N1c2ccccc2NC2=C(C(=O)CCC2)C1c1ccc([N+](=O)[O-])cc1 (centres undefined) | Plasmodium falciparum | 7.57
O=C(c1cccs1)N1CCN(c2ccc([N+](=O)[O-])c(NC3CC3)c2)CC1 | Plasmodium falciparum | 5.86
Cc1ccc(OCCCCCCNCCO)c(C)c1 | Plasmodium falciparum | 6.41
Cc1oc2c(c1C(=O)N1CCN(C)CC1)C(=O)c1ccccc1C2=O | Plasmodium falciparum | 6.47
CCOC(=O)c1sc(NC(=O)C(C)Sc2nnc(CNC(=O)c3ccc(OC)cc3)n2-c2ccccc2OC)c(C(=O)OCC)c1C (centres undefined) | Plasmodium falciparum | 6.36

Need pEC50 for each of these molecules.
1. O=C(Cc1ccccc1)NC(c1ccc(Cl)cc1)c1ccc2cccnc2c1O (centres undefined)
2. Cc1cc(N2CCN(C3CCCCC3)CC2)n2c(nc3ccccc32)c1C#N
3. CCN1c2ccccc2N(C)C1(C)c1ccccc1 (centres undefined)

Reply text:
1: 6.47; 2: 6.69; 3: 7.31

Query COC(=O)C1C(=O)C2=C(CC1C)NC(=O)CC2c1cccc(Cl)c1Cl (centres undefined) yields pEC50 of 6.21
